Measured IC50 values are reported for all entries that follow.
# Test system: 475296-252-R-J1-PDC spheroid viability;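 further: spheroids exposed to agents for seven days before readout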
# procedure_text: Anticancer human tumor 475296-252-R-J1-PDC patient-derived rectal carcinoma cell line growth inhibition [PI3K]
# setup_conditions: curve of first compound; second compound 10 µM; spheroids with HUVEC and MSC

• CCN1CCN(Cc2ccc(Nc3ncc(F)c(-c4cc(F)c5nc(C)n(C(C)C)c5c4)n3)nc2)CC1 + Cc1nc(NC(=O)N2CCCC2C(N)=O)sc1-c1ccnc(C(C)(C)C(F)(F)F)c1 = > 1000 nM

Ask: Return IC50 for the following molecule: Cn1ncnc1[C@H]1c2n[nH]c(=O)c3cc(F)cc(c23)N[C@@H]1c1ccc(F)cc1 + Cc1nc(NC(=O)N2CCCC2C(N)=O)sc1-c1ccnc(C(C)(C)C(F)(F)F)c1
Reply: > 100 nM

Ask: Please report the measured IC50 for CC(=O)c1c(C)c2cnc(Nc3ccc(N4CCNCC4)cn3)nc2n(C2CCCC2)c1=O + Cc1nc(NC(=O)N2CCCC2C(N)=O)sc1-c1ccnc(C(C)(C)C(F)(F)F)c1
Reply: > 100 nM
